testConditions: [M+Na]+; instrument: TW; calibrated with polyalanine
measuredParameter: collision cross section (N2) (Å²)
Return type: number; implicit unit Å².

Q) GET /values?readout=collision cross section (N2)&item= O=P(O)(O)OC[C@H](O)CO [Glycerol monophosphate]
A) 132

Q) GET /values?readout=collision cross section (N2)&item= OC[C@H]1O[C@@H](O[C@H]2[C@H](O)[C@@H](O)[C@H](O)O[C@@H]2CO)[C@H](O)[C@@H](O)[C@H]1O
A) 173

Q) GET /values?readout=collision cross section (N2)&item= OC[C@H]1O[C@H](OC[C@H]2O[C@H](O[C@]3(CO)O[C@H](CO)[C@@H](O)[C@@H]3O)[C@H](O)[C@@H](O)[C@@H]2O)[C@H](O)[C@@H](O)[C@H]1O
A) 210

Q) GET /values?readout=collision cross section (N2)&item= OC[C@H]1O[C@@](CO)(O[C@H]2O[C@H](CO)[C@@H](O)[C@H](O)[C@H]2O)[C@@H](O)[C@@H]1O
A) 170

Q) GET /values?readout=collision cross section (N2)&item= OC[C@H]1O[C@H](O[C@H]2O[C@H](CO)[C@@H](O)[C@H](O)[C@H]2O)[C@H](O)[C@@H](O)[C@@H]1O
A) 173

Q) GET /values?readout=collision cross section (N2)&item= O=C[C@H](O)[C@H](O)[C@H](O)COP(=O)(O)O [Ribose 5-monophosphate]
A) 146

# ---- query compound ----
Q) GET /values?readout=collision cross section (N2)&item= O=c1ccn([C@@H]2O[C@H](COP(=O)(O)O)[C@@H](O)[C@H]2O)c(=O)[nH]1
A) 168
